Source of measurements: patent US20240002416A1

Target: human MRGPRX4-83L (Homo sapiens, UniProt Q96LA9)
Construct: host or cells: CHO β-arrestin cells
Sequence (Q96LA9 whole entry): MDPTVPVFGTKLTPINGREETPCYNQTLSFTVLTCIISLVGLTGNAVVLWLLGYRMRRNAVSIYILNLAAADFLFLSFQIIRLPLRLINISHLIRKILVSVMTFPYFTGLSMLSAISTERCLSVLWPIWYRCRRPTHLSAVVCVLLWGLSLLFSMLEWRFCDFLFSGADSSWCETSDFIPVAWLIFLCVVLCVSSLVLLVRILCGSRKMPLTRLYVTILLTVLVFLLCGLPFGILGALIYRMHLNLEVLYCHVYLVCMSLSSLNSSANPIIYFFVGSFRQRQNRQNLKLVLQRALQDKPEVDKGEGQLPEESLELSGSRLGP
Assay: β-arrestin assay (CHO β-arrestin ARMS1-ProLink 2 human MRGPRX4 83L)
Type: cell-based
Settings: Table 1; efficacy based on maximal effect of 100 nM B-16 (set as 100%); read-out: Emax
Test Readout: Emax (%)
Numeric only. Scale: %

Request: Query the reported Emax for human MRGPRX4-83L (Homo sapiens, UniProt Q96LA9); item: C#CCn1c(=O)c2[nH]c(CCc3cccc(OC)c3)nc2n(CCCCP(=O)(O)OCC)c1=O [D-3]
Response: 112

Request: Missing value: Emax, human MRGPRX4-83L (Homo sapiens, UniProt Q96LA9), entry C#CCn1c(=O)c2c(nc(CCc3ccccc3Cl)n2C)n(CCCCP(=O)(O)O)c1=O [B-17] . Fill in?
Response: 114

Request: Short answer please: Emax, human MRGPRX4-83L (Homo sapiens, UniProt Q96LA9), entry C#CCn1c(=O)c2c(nc(CCc3ccccc3Br)n2CCO)n(CCCCP(=O)(O)O)c1=O [B-20]
Response: 124

Request: GET /values?readout=Emax&system=human MRGPRX4-83L (Homo sapiens, UniProt Q96LA9)&item= C#CCn1c(=O)c2[nH]c(CCc3cccc(C(F)(F)F)c3)nc2n(CCCCP(=O)(O)O)c1=O [B-6]
Response: 114

Request: Short answer please: Emax, human MRGPRX4-83L (Homo sapiens, UniProt Q96LA9), entry C#CCn1c(=O)c2[nH]c(CCc3ccc(OC)cc3OC)nc2n(CCCCP(=O)(O)O)c1=O [B-10]
Response: 100

Request: For human MRGPRX4-83L (Homo sapiens, UniProt Q96LA9), provide Emax of C#CCn1c(=O)c2[nH]c(CCc3cccc(Br)c3)nc2n(CCCCP(=O)(O)O)c1=O [B-4] please.
Response: 103

Request: Record lookup: for human MRGPRX4-83L (Homo sapiens, UniProt Q96LA9), what Emax belongs to C#CCn1c(=O)c2c(nc(CCc3ccccc3Br)n2CC2CC2)n(CCCCP(=O)(O)O)c1=O [B-21] ?
Response: 163

Request: What measured Emax is associated with COc1cccc(CCc2nc3c([nH]2)c(=O)n(CC2CCC2)c(=O)n3CCCCP(=O)(O)O)c1 [B-13] on human MRGPRX4-83L (Homo sapiens, UniProt Q96LA9)?
Response: 96
